test: CREB reporter modulators without forskolin, primary screen, cell-based, PC12, CRE-LacZ reporter, unstimulated (AID 1145); conditions: no forskolin, luminescence, 4.5 h, higher = more signal, called active from +8 up or from −8 down
Calls of active or inactive are those of the source.

smiles-code	z-score
CC(C)CON=C1[C@H]2CCn3c(=O)n(C)c(=O)n3[C@H]2[C@H](O)[C@@H]2O[C@H]12	0.252 (inactive)
CCOC(=O)CCN1C(=O)[C@H]2[C@H]3[C@H](O)[C@H](O)CC(=NOCC=C(C)CCC=C(C)C)[C@@H]3CC[C@H]2C1=O	0.875 (inactive)
CC(CCN1CCCc2nc(C)c(C)cc21)=NOC[C@@H](C)[C@H](OCc1ccccc1)C(C)C	-1.14 (inactive)

* * *

assay: CREB reporter modulators without forskolin, primary screen, cell-based, PC12, CRE-LacZ reporter, unstimulated (AID 1145); conditions: no forskolin, luminescence, 4.5 h, higher = more signal, called active from +8 up or from −8 down
Class Satisfied: z-score at least 0.9. Class Not satisfied: z-score below 0.9.

compound	assigned-label
C=CCOCC1CN2[C@@H](CC[C@@H](C)[C@@H]2c2ccc(Br)cc2)C(=O)O1 (some centres undefined)	Not satisfied
CCOC(=O)NN=C1C[C@@H](O)[C@@H](O)[C@@H]2[C@@H]3C(=O)N(C[C@@H]4CCCO4)C(=O)[C@@H]3CC[C@H]12	Not satisfied
CCOC(=O)[C@H](CC(C)C)NC(=O)CCC1CC(OC(=O)NCCc2ccc(F)cc2)CC2(CCCC(COC(=O)NCCCN3CCCC3=O)O2)O1 (some centres undefined)	Not satisfied
CC(CCN1CCCCc2nc(C)c(C)cc21)=NO[C@@H](C)c1cc(-c2c(C)cc(C)cc2C)no1	Satisfied
CC(=O)OC[C@H]1O[C@H](C#CCC2CCCCC2)C=C[C@@H]1OC(C)=O	Not satisfied
C[C@@H]1CC[C@H]2C(=O)OC(CN3C(=O)c4ccccc4C3=O)CN2[C@H]1c1ccc(Br)cc1 (some centres undefined)	Satisfied
COc1ccc(COC(=O)NN=C2C[C@@H](O)[C@@H](O)[C@@H]3[C@@H]4C(=O)N(C[C@@H]5CCCO5)C(=O)[C@@H]4CC[C@H]23)cc1	Not satisfied
CC#CCOCCC=C1c2ccccc2[C@@H](OC)[C@@H]1C	Satisfied

* * *

assay: binders of probe aFGF10 on microarray, primary screen, stem cell growth factor project, biochemical, small-molecule microarray, fluorescence 635/667 (AID 1071); settings: higher = more signal;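 note: score merges 667 nm spot intensity and signal to noise from triplicate slides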
Class 1 (yes): composite z-score at least 0.08. Class 0 (no): composite z-score below 0.08.

smiles-code	assigned-label
CCN1C(C)=C(C(=O)OC)[C@@H](c2ccccc2)N2C(=O)[C@](O)(C(=O)OC)CC(C(C)=O)=C12	1 (yes)
CO[C@H]1COC(=O)CCC[C@H](C)[C@@H](OC)COC(=O)CC=C[C@@H]1C	1 (yes)
CC(C)(C)N1C(=O)[C@H]2[C@H]3[C@H](O)[C@H](O)CC(=NNC(=O)OCc4ccccc4)[C@@H]3CC[C@H]2C1=O	1 (yes)
CCOC(=O)NN=C1C[C@@H](O)[C@@H](O)[C@@H]2[C@@H]3C(=O)N(CC)C(=O)[C@@H]3CC[C@H]12	1 (yes)
COc1ccc(COC(=O)NN=C2C[C@@H](O)[C@@H](O)[C@@H]3[C@@H]4C(=O)N(Cc5ccc6c(c5)OCO6)C(=O)[C@@H]4CC[C@H]23)cc1	0 (no)
O=C1[C@H]2[C@H]3[C@H](O)[C@H](O)CC(=NOC[C@@H](O)COCc4ccco4)[C@@H]3CC[C@H]2C(=O)N1c1cccc(Oc2ccccc2)c1	0 (no)
CCO[C@H](c1cc(OC)cc([N+](=O)[O-])c1OC)[C@H](C)[C@@H](OC)[C@H](C)C=CCC(=O)OC	0 (no)
CO[C@H]1COC(=O)CC=C[C@H](C)[C@H](OC)COC(=O)[C@@H](C)NC(=O)CC=C[C@@H]1C	0 (no)
COC(=O)CC=C[C@@H](C)[C@@H](C=NOC[C@@H](O)COCc1ccco1)NS(=O)(=O)c1ccc(C)cc1	0 (no)
COc1ccc(O[C@H]2C=C[C@@H](c3ccccc3)O[C@@H]2CON=C(C)CCN2CCCc3nc(C)c(C)cc32)cc1	0 (no)
CC#CCOCCC=C1c2ccccc2[C@@H](OC)[C@@H]1C	1 (yes)
O=C1C[C@H](c2ccccc2)[C@H](c2ccc(Br)cc2)O1	1 (yes)
C[C@H]1CC[C@@H](C(=O)O)N[C@@H]1c1cccc(N2CCCC2=O)c1	1 (yes)
